MIC by entry:
- System: Strep. uberis SPO1
- assay-procedure: Veterinary bacteria MIC, Diagnostic Sensitivity Test Agar (Table 2)
- Type: cell-based
- study-conditions: Streptococcus uberis, SPO1, 18 h
test-readout: MIC

compound	recorded-value
C/C(=C\C(=O)OCc1ccc([N+](=O)[O-])cc1[N+](=O)[O-])CC1OCC(CC2OC2C(C)C(C)O)C(O)C1O (stereo not shown) [Example 10, 2,4-dinitrobenzyl monate A]	0.312 µg/mL
C/C(=C\C(=O)OCc1cc([N+](=O)[O-])cc([N+](=O)[O-])c1)CC1OCC(CC2OC2C(C)C(C)O)C(O)C1O (stereo not shown) [Example 6, 3,5-dinitrobenzyl monate A]	0.07 µg/mL
C/C(=C\C(=O)OCc1cc([N+](=O)[O-])cc([N+](=O)[O-])c1C)CC1OCC(CC2OC2C(C)C(C)O)C(O)C1O (stereo not shown) [Example 7, 3,5-dinitro-2-methylbenzyl monate A]	0.156 µg/mL
C/C(=C\C(=O)OCc1ccc([N+](=O)[O-])c([N+](=O)[O-])c1)CC1OCC(CC2OC2C(C)C(C)O)C(O)C1O (stereo not shown) [Example 9, 3,4-dinitrobenzyl monate A]	0.156 µg/mL
